From: PubChem BioAssay (Tox21)

# tested-system: Thyrotropin-releasing hormone receptor (Homo sapiens) (UniProt P34981)
# Sequence (P34981 whole entry, looked up): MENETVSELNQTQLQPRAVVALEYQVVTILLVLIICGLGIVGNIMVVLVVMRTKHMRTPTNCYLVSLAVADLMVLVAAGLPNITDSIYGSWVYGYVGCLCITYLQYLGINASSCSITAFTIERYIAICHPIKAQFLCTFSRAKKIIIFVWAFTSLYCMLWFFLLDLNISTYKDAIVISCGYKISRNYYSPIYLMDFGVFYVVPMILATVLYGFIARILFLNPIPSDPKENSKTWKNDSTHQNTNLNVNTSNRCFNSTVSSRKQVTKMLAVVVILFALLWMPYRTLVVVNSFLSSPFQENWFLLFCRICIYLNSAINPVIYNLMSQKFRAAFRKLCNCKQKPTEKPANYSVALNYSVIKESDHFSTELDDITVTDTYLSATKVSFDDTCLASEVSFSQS
# run-description: qHTS assay to identify small molecule antagonists of the thyrotropin-releasing hormone receptor (TRHR) signaling pathway (AID 1346877); further: on the % scale 0 is the no-effect control and ±100 the full control effect
# test-context: TRHR-HEK293, TRH-induced calcium fluorescence, antagonist mode; series mostly up to 51.3 µM
The source made the active and inactive calls. The call rests on the fitted dose curve; in most records, active means well fitted inhibition curve with a large enough effect in the repeat runs (not every such curve was filed as active); inconclusive means weak or mixed curves; inactive means flat fitted curve, though single readings scatter.

- compound: "Cc1oc(=O)oc1CN1CCN(c2cc3c(cc2F)c(=O)c(C(=O)O)c2n3C(C)S2)CC1 (centres undefined)"
  activity, negative = inhibition: "inactive"
- compound: "O=S(=O)(O)CCO"
  activity, negative = inhibition: "inactive"
- compound: "NC(=O)NNC(N)=O"
  activity, negative = inhibition: "inactive"
- compound: "CC1=NN(c2ccc(S(=O)(=O)O)cc2)C(=O)C1N=Nc1ccccc1 (centres undefined)"
  activity, negative = inhibition: "inactive"
- compound: "COc1ccc(NS(=O)(=O)c2ccc(N)cc2)nn1"
  activity, negative = inhibition: "inactive"
- compound: "C[Si]1(C)N[Si](C)(C)N[Si](C)(C)N1"
  activity, negative = inhibition: "inactive"
- compound: "CCCOCCOCCOCCO"
  activity, negative = inhibition: "inactive"
- compound: "O=S1(=O)CCCC1"
  activity, negative = inhibition: "inactive"
- compound: "CC(=O)/C=C/c1ccco1"
  activity, negative = inhibition: "inactive"
- compound: "O=C(Oc1ccccc1C(=O)O)c1ccccc1O"
  activity, negative = inhibition: "inactive"
- compound: "Cc1ccccc1N1CCN(CCc2nnc3n2CCCC3)CC1"
  activity, negative = inhibition: "inactive"
- compound: "CCCCCCCCCCCCCC(=O)OC"
  activity, negative = inhibition: "inactive"
- compound: "CCCCOC(=O)C(=O)OCCCC"
  activity, negative = inhibition: "inactive"
- compound: "CCc1nccnc1C"
  activity, negative = inhibition: "inactive"
- compound: "CCC1COC(=O)O1 (centres undefined)"
  activity, negative = inhibition: "inactive"
- compound: "Nc1cc(S(=O)(=O)O)ccc1S(=O)(=O)O"
  activity, negative = inhibition: "inactive"
- compound: "O=C(O)c1c(Cl)ccc(Cl)c1Cl"
  activity, negative = inhibition: "inactive"
- compound: "COCCOCCOCCOC"
  activity, negative = inhibition: "inactive"
- compound: "Cc1ccc2c(c1)c1c3n2CCNC3CCC1 (centres undefined)"
  activity, negative = inhibition: "inactive"
- compound: "Nc1ccc(S(=O)(=O)NC(=O)c2ccccc2)cc1"
  activity, negative = inhibition: "inactive"
- compound: "COC(OC)C(C)c1ccccc1 (centres undefined)"
  activity, negative = inhibition: "inactive"
- compound: "COc1cc([N+](=O)[O-])ccc1N"
  activity, negative = inhibition: "inactive"
- compound: "C[C@H](CCC(=O)NCC(=O)O)[C@H]1CC[C@H]2[C@@H]3[C@H](O)C[C@@H]4C[C@H](O)CC[C@]4(C)[C@H]3C[C@H](O)[C@]12C"
  activity, negative = inhibition: "inactive"
- compound: "CC(=O)N1CCN(c2ccc(O)cc2)CC1"
  activity, negative = inhibition: "inactive"
- compound: "Oc1ccccc1Cc1ccccc1O"
  activity, negative = inhibition: "inactive"
- compound: "CCCCCC1Nc2cc(C(F)(F)F)c(S(N)(=O)=O)cc2S(=O)(=O)N1 (centres undefined)"
  activity, negative = inhibition: "inactive"
- compound: "C=CCOc1c(Br)cc(Br)cc1Br"
  activity, negative = inhibition: "inactive"
- compound: "C=C[C@@H](C)CCC=C(C)C"
  activity, negative = inhibition: "inactive"
- compound: "COc1ccc(OC)c(NC(=O)CC(C)=O)c1"
  activity, negative = inhibition: "inactive"
- compound: "CCCCC(CC)CNC(=O)CC(C)OC(=O)CCC(=O)O (centres undefined)"
  activity, negative = inhibition: "inactive"
- compound: "C1CCN2C[C@@H]3C[C@@H](CN4CCCC[C@@H]34)[C@H]2C1"
  activity, negative = inhibition: "inactive"
- compound: "O=C1OC(=O)c2cc(Oc3ccc4c(c3)C(=O)OC4=O)ccc21"
  activity, negative = inhibition: "inactive"
- compound: "CCN1CN(CC)CN(CC)C1"
  activity, negative = inhibition: "inactive"
- compound: "CCCCC(CC)C(=O)OC(C)C (centres undefined)"
  activity, negative = inhibition: "inactive"
- compound: "C/C=C(\\C)C(=O)OCC/C=C\\CC"
  activity, negative = inhibition: "inactive"
- compound: "CCS(=O)(=O)CCn1c([N+](=O)[O-])cnc1C"
  activity, negative = inhibition: "inactive"
- compound: "NC(=O)NC(=O)Cc1ccccc1"
  activity, negative = inhibition: "inactive"
- compound: "CCCCCC(=O)OCC"
  activity, negative = inhibition: "inactive"
- compound: "O=S(=O)(O)c1cc(O)ccc1O"
  activity, negative = inhibition: "inactive"
- compound: "C=CCOC(=O)c1ccc(C(=O)OCC=C)c(C(=O)OCC=C)c1"
  activity, negative = inhibition: "inactive"
- compound: "CC(CC(=O)O)CC(C)(C)C (centres undefined)"
  activity, negative = inhibition: "inactive"
- compound: "CO/N=C(/C(=O)N[C@@H]1C(=O)N2C(C(=O)O)=C(Cn3nnc(C)n3)CS[C@H]12)c1csc(N)n1"
  activity, negative = inhibition: "inactive"
- compound: "CCCCCC1CCCC(=O)O1 (centres undefined)"
  activity, negative = inhibition: "inactive"
- compound: "CN(C)CCOCCN(C)CCO"
  activity, negative = inhibition: "inactive"
- compound: "CCOC(=O)CC#N"
  activity, negative = inhibition: "inactive"
- compound: "CCNC(=O)NCCCOc1cccc(CN2CCCCC2)c1"
  activity, negative = inhibition: "inactive"
- compound: "O=C1OC(=O)c2ccccc21"
  activity, negative = inhibition: "inactive"
- compound: "NS(=O)(=O)c1cc2c(cc1Cl)NC(C(Cl)Cl)NS2(=O)=O (centres undefined)"
  activity, negative = inhibition: "inactive"
- compound: "CCC(=O)c1ccc(O)cc1"
  activity, negative = inhibition: "inactive"
- compound: "CCCCCCCCCCCCOC(C)=O"
  activity, negative = inhibition: "inactive"
- compound: "CC(C)SCc1ccco1"
  activity, negative = inhibition: "inactive"
- compound: "CC(=O)OC[C@H]1O[C@@H](OC(C)=O)[C@H](OC(C)=O)[C@@H]1OC(C)=O"
  activity, negative = inhibition: "inactive"
- compound: "CCN(Cc1cccc(S(=O)(=O)O)c1)c1ccccc1"
  activity, negative = inhibition: "inactive"
- compound: "C=CCOCC(CO)(COCC=C)COCC=C"
  activity, negative = inhibition: "inactive"

* * *

# run-description: qHTS assay to test for compound auto fluorescence at 535 nm (green) in HEK293 cell free culture (AID 720682); further: on the % scale 0 is the no-effect control and ±100 the full control effect
# test-context: cell-free medium, green autofluorescence 485/535 nm, stronger effect = higher value; series mostly up to 91.3 µM
Activity calls are given as the source filed them. The call rests on the fitted dose curve; in most records, active means well fitted curve in the direction sought with a large enough effect in the repeat runs; inconclusive means weak or mixed curves; inactive means flat fitted curve, though single readings scatter.
property-measured: activity change

- compound: "O=c1[nH]c(=O)c2[nH]c(=O)[nH]c2[nH]1"
  reported-value: "inactive"
- compound: "O=C(Nc1cccc(C2=NCCN2)c1)Nc1cccc(C2=NCCN2)c1"
  reported-value: "inactive"
- compound: "Nc1cc(C(=O)O)ccc1Cl"
  reported-value: "inactive"
- compound: "CCCCOC(=O)C(=O)OCCCC"
  reported-value: "inactive"
- compound: "CC(C)CCCCCCOC(=O)C1CCCCC1C(=O)OCCCCCCC(C)C (stereo not given)"
  reported-value: "inactive"
- compound: "COc1cc2c(Nc3ccc(Br)cc3F)ncnc2cc1OCC1CCN(C)CC1"
  reported-value: "inactive"
- compound: "O=C1NC2NC(=O)NC2N1 (stereo not given)"
  reported-value: "inactive"
- compound: "Cc1cccc(NC(=S)N(C)C)c1"
  reported-value: "inactive"
- compound: "C1=C\\CC/C=C\\CC/1"
  reported-value: "inactive"
- compound: "C[C@@H]1C[C@H]2[C@@H]3C[C@H](F)C4=CC(=O)C=C[C@]4(C)[C@@]3(F)[C@@H](O)C[C@]2(C)[C@@]1(O)C(=O)CO"
  reported-value: "0.0847% [at 18.6 µM] (inactive)"
- compound: "O=[Si]=O"
  reported-value: "inactive"
- compound: "CC1=CC[C@H](CC=O)C1(C)C"
  reported-value: "inactive"
- compound: "C[Si]1(C)N[Si](C)(C)N[Si](C)(C)N1"
  reported-value: "inactive"
- compound: "CC(=O)OCC(=O)[C@@]1(O)[C@H](OC(C)=O)C[C@H]2[C@@H]3CCC4=CC(=O)C=C[C@]4(C)[C@@]3(F)[C@@H](O)C[C@@]21C"
  reported-value: "inactive"
- compound: "CC1CCC(C(C)(C)S)C(=O)C1 (stereo not given)"
  reported-value: "inactive"
- compound: "COC(/C=C(\\C)CCC=C(C)C)OC"
  reported-value: "inactive"
- compound: "CCOC(=O)CC(CC(=O)OCC)(OC(C)=O)C(=O)OCC"
  reported-value: "inactive"
- compound: "CCCCCC1CCCC(=O)O1 (stereo not given)"
  reported-value: "inactive"
- compound: "CNC(=O)NC"
  reported-value: "inactive"
- compound: "CCCOC(=O)CCCCC(=O)OCCC"
  reported-value: "inactive"
- compound: "CCS(=O)(=O)CCn1c([N+](=O)[O-])cnc1C"
  reported-value: "0.0328% [at 18.6 µM] (inactive)"
- compound: "OC(CCN1CCCCC1)(c1ccccc1)c1ccccc1"
  reported-value: "inactive"
- compound: "CC(=O)OC(C)(C)Cc1ccccc1"
  reported-value: "inactive"
- compound: "CCCCCCCC/C=C\\CCCCCCCC(=O)OC[C@@H](O)[C@H]1OC[C@H](O)[C@H]1O"
  reported-value: "inactive"
- compound: "N#CCCOCCOCCC#N"
  reported-value: "inactive"
- compound: "CO/N=C(/C(=O)N[C@@H]1C(=O)N2C(C(=O)O)=C(Cn3nnc(C)n3)CS[C@H]12)c1csc(N)n1"
  reported-value: "inactive"
- compound: "CCCCCCCCCCCCCC(=O)OC"
  reported-value: "inactive"
- compound: "CC(C)(C)c1ccc(C=O)cc1"
  reported-value: "inactive"
- compound: "Nc1cc(S(=O)(=O)O)ccc1S(=O)(=O)O"
  reported-value: "inactive"
- compound: "O=C1c2ccccc2-c2ccccc21"
  reported-value: "inactive"
- compound: "COc1cc2c3cc1Oc1cc(ccc1O)C[C@@H]1c4c(cc(OC)c(O)c4Oc4ccc(cc4)C[C@@H]3N(C)CC2)CC[N+]1(C)C"
  reported-value: "inactive"
- compound: "CC(C)SCc1ccco1"
  reported-value: "inactive"
- compound: "Cc1cccc(C(=O)O)c1[N+](=O)[O-]"
  reported-value: "inactive"
- compound: "C/C=C(\\C)C(=O)OCC/C=C\\CC"
  reported-value: "inactive"
- compound: "CC(=O)Nc1ncc([N+](=O)[O-])s1"
  reported-value: "inactive"
- compound: "NS(=O)(=O)c1cc2c(cc1Cl)NC(C(Cl)Cl)NS2(=O)=O (stereo not given)"
  reported-value: "-0.0213% [at 18.6 µM] (inactive)"
- compound: "CC(Cl)COP(=O)(OCC(C)Cl)OCC(C)Cl (stereo not given)"
  reported-value: "inactive"
- compound: "FC(F)(F)c1ccc(Cl)cc1Cl"
  reported-value: "inactive"
- compound: "CCC(C)N (stereo not given)"
  reported-value: "inactive"
- compound: "COc1cc(C=O)ccc1OC(=O)C(C)C"
  reported-value: "inactive"
- compound: "CN[C@@H]1[C@@H](O)[C@@H](O[C@@H]2[C@H](O)[C@H](O[C@H]3OC(CN)=CC[C@H]3N)[C@@H](N)C[C@H]2N)OCC1(C)O (stereo not given in full)"
  reported-value: "inactive"
- compound: "NCCc1ccn[nH]1"
  reported-value: "0.0838% [at 18.6 µM] (inactive)"
- compound: "CC(C)(CO)[C@@H](O)C(=O)NCCCO"
  reported-value: "inactive"
- compound: "C=CC(C)(O)CC/C=C(\\C)CC (stereo not given)"
  reported-value: "inactive"
- compound: "CCCCC/C=C/CC(=O)OC"
  reported-value: "inactive"
- compound: "CC(C)COC(=O)CCCCC(=O)OCC(C)C"
  reported-value: "inactive"
- compound: "CCCCC(CC)C(=O)OC(C)C (stereo not given)"
  reported-value: "inactive"
- compound: "O=C1OC(=O)c2cc(Oc3ccc4c(c3)C(=O)OC4=O)ccc21"
  reported-value: "inactive"
- compound: "Nc1cc(Cl)cc(S(=O)(=O)O)c1O"
  reported-value: "inactive"
- compound: "CN(C1CCCCC1)S(=O)(=O)c1ccccc1N"
  reported-value: "inactive"
- compound: "C=CCOc1cc(Cl)ccc1C(=O)NCCN(CC)CC"
  reported-value: "inactive"
- compound: "O=S(=O)(O)SSS(=O)(=O)O"
  reported-value: "inactive"
- compound: "CC(=O)/C=C/c1ccco1"
  reported-value: "inactive"
- compound: "C=CCOc1c(Br)cc(Br)cc1Br"
  reported-value: "inactive"
- compound: "CO[Si](CCCCl)(OC)OC"
  reported-value: "inactive"
